These records show pIC50 for Voltage-gated inwardly rectifying potassium channel KCNH2 (Homo sapiens).
Answers are plain numbers, as −log10 of the molar value.

Cc1ncn(-c2cc(Cl)c(C(=O)NC[C@@H](c3cccc(F)c3)c3nc4c(C)cc(Cl)cc4[nH]3)c(Cl)c2)n1: 5.52
Cc1ncn(-c2cc(Cl)c(C(=O)NC[C@@H](c3cccc(F)c3)c3ccc4[nH]c(C)nc4c3)c(Cl)c2)n1: 4.70

Here's the next entry for you.
Req: pIC50 lookup needed for `COc1cc2nc([C@@H](CNC(=O)c3c(Cl)cc(-n4cnc(C)n4)cc3Cl)c3cccc(F)c3)[nH]c2cc1Cl` , thanks.
Resp: 4.96

---

# Tested on: Plasma
# protocol notes: Anticoagulant activity in 1 pM tissue factor stimulated human CTI-citrated plasma assessed as inhibition of thrombin generation incubated for 5 mins by calibrated automated thrombogram analysis
# Format: functional, cell-free
measured endpoint: pIC50
Numbers only, as −log10 of the molar value.

Cc1ncn(-c2cc(Cl)c(C(=O)NC[C@@H](c3cccc(F)c3)c3ccc4[nH]c(C)nc4c3)c(Cl)c2)n1: 5.94

Here's the next entry for you.
Req: Checklist item: pIC50 tested on Plasma, entry `COc1ccc(-n2nc(C(N)=O)c3c2C(=O)N(c2ccc(N4CCCCC4=O)cc2)CC3)cc1` , value?
Resp: 7.47

---

These records show Ki for Coagulation factor X (Homo sapiens, UniProt P00742).
Numbers only, in nM.

Before answering, review these 5 worked examples.
Cc1cc2nc([C@@H](CNC(=O)c3ccc(-n4cnnc4)cc3Cl)c3cccc(F)c3)[nH]c2cc1C: 1010
Cc1cc2nc([C@@H](CNC(=O)c3c(Cl)cc(-n4cnnc4)cc3Cl)c3ccccc3)[nH]c2cc1C: 105
Cc1ncn(-c2cc(Cl)c(C(=O)NC[C@@H](c3cccc(F)c3)c3nc4ccc(Cl)cc4[nH]3)c(Cl)c2)n1: 20700
Cc1ncn(-c2cc(Cl)c(C(=O)NC[C@@H](c3cccc(F)c3)c3ccc4[nH]c(C)nc4c3)c(Cl)c2)n1: 2800
Cc1cc2nc([C@@H](CNC(=O)c3ccc(-n4cnnc4)cc3Cl)c3cccnc3)[nH]c2cc1C: 1600

Quick batch: Ki for everything below.
1. Cc1cc2nc([C@@H](CNC(=O)c3c(F)cc(-n4cnnc4)cc3Cl)c3ccccc3)[nH]c2cc1C
2. Cc1cc2nc([C@@H](CNC(=O)c3ccc(-n4cnnc4)cc3Cl)c3ccccc3F)[nH]c2cc1C

Resp:
544
412

---

# protocol notes: Oral bioavailability in rat at 2 mg/kg
# Format: ADME, organism-based
# experimental conditions: in vivo
Answer each item with its documented bioavailability.

Cc1ncn(-c2cc(Cl)c(C(=O)NC[C@@H](c3cccc(F)c3)c3ccc4[nH]c(C)nc4c3)c(Cl)c2)n1: 11.1%
Cc1ncn(-c2cc(Cl)c(C(=O)NC[C@@H](c3cccc(F)c3)c3nc4c(F)ccc(C)c4c(=O)[nH]3)c(Cl)c2)n1: 14.1%
Cc1ncn(-c2cc(Cl)c(C(=O)NC[C@@H](c3cccc(F)c3)c3nc4ccc(Cl)cc4[nH]3)c(Cl)c2)n1: 48.2%
Cc1ncn(-c2cc(Cl)c(C(=O)NC[C@@H](c3cccc(F)c3)c3nc4c(C)cc(Cl)cc4[nH]3)c(Cl)c2)n1: 57.3%

Here's the next entry for you.
Req: bioavailability lookup needed for `COc1cc2nc([C@@H](CNC(=O)c3c(Cl)cc(-n4cnc(C)n4)cc3Cl)c3cccc(F)c3)[nH]c2cc1Cl` , thanks.
Resp: 7.89%

---

# study system: Coagulation factor IX (Homo sapiens, UniProt P00740)
# Sequence (P00740 47-191 limits assumed): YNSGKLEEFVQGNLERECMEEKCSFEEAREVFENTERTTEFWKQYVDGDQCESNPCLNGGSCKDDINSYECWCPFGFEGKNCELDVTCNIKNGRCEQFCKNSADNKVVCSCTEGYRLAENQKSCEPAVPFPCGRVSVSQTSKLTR
# Sequence (P00740 227-461 limits assumed): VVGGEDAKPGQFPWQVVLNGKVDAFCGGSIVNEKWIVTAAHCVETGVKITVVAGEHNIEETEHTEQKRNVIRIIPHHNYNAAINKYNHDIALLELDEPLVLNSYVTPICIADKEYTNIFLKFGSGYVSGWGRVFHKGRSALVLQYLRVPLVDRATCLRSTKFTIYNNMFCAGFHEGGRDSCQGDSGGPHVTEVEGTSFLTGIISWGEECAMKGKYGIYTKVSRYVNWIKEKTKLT
pKi: −log10 of the molar value.
TRUE means recorded pKi is 8 or above; FALSE means it is below 8.

Before answering, review these 5 worked examples.
Cc1ncn(-c2cc(Cl)c(C(=O)NC[C@@H](c3cccc(F)c3)c3cc(=O)c4c(C)ccc(F)c4[nH]3)c(Cl)c2)n1: TRUE
Cc1ncn(-c2cc(Cl)c(C(=O)NC[C@@H](c3ccccc3)c3nc4cc(C)c(C)cc4[nH]3)c(Cl)c2)n1: FALSE
COc1cc2nc([C@@H](CNC(=O)c3c(Cl)cc(-n4cnc(C)n4)cc3Cl)c3cccc(F)c3)[nH]c2cc1Cl: TRUE
Cc1ncn(-c2cc(Cl)c(C(=O)NC[C@@H](c3cccc(F)c3)c3nc4c(F)ccc(C)c4c(=O)[nH]3)c(Cl)c2)n1: TRUE
Cc1cc2nc([C@@H](CNC(=O)c3c(Cl)cc(-n4cnnc4)cc3C(F)(F)F)c3ccccc3)[nH]c2cc1C: FALSE

Req: API: above_or_equal(metric=pKi, cutoff=8) for item `Cc1ncn(-c2cc(Cl)c(C(=O)NC[C@@H](c3cccc(F)c3)c3cnc4[nH]c(C)cc4c3)c(Cl)c2)n1`
Resp: TRUE

Req: API: above_or_equal(metric=pKi, cutoff=8) for item `Cc1cc2nc([C@@H](CNC(=O)c3c(Cl)cc(-n4cnnc4)cc3Cl)c3ccccc3)[nH]c2cc1C`
Resp: TRUE

---

# Test system: Plasma
# protocol notes: Anticoagulant activity in 3 pM recombinant coagulation factor 11a stimulated human CTI-citrated plasma assessed as inhibition of thrombin generation incubated for 5 mins by calibrated automated thrombogram analysis
# Format: functional, cell-free
Answer each item with its documented IC50.
Answers are plain numbers, in µM.

COc1ccc(-n2nc(C(N)=O)c3c2C(=O)N(c2ccc(N4CCCCC4=O)cc2)CC3)cc1 [APIXABAN]: 0.747

Req: IC50 lookup needed for `Cc1ncn(-c2cc(Cl)c(C(=O)NC[C@@H](c3cccc(F)c3)c3ccc4[nH]c(C)nc4c3)c(Cl)c2)n1` , thanks.
Resp: 7.16

---

# protocol notes: Clearance in rat at 2 mg/kg, po and 0.5 mg/kg, iv
# Type: ADME, organism-based
# experimental conditions: in vivo
Answer each item with its documented log10 clearance.
Note: values are log10 of clearance expressed in L/h/kg.

Quick batch: log10 clearance for everything below.
1. Cc1ncn(-c2cc(Cl)c(C(=O)NC[C@@H](c3cccc(F)c3)c3nc4c(F)ccc(C)c4c(=O)[nH]3)c(Cl)c2)n1
2. Cc1ncn(-c2cc(Cl)c(C(=O)NC[C@@H](c3cccc(F)c3)c3nc4c(C)cc(Cl)cc4[nH]3)c(Cl)c2)n1
3. COc1cc2nc([C@@H](CNC(=O)c3c(Cl)cc(-n4cnc(C)n4)cc3Cl)c3cccc(F)c3)[nH]c2cc1Cl
4. Cc1ncn(-c2cc(Cl)c(C(=O)NC[C@@H](c3cccc(F)c3)c3nc4ccc(Cl)cc4[nH]3)c(Cl)c2)n1
5. Cc1ncn(-c2cc(Cl)c(C(=O)NC[C@@H](c3cccc(F)c3)c3ccc4[nH]c(C)nc4c3)c(Cl)c2)n1

Resp:
1. -0.03
2. -0.64
3. 0.40
4. -0.28
5. 0.34

---

Answer each item with its documented half-life.
# protocol notes: Half life in rat at 2 mg/kg, po and 0.5 mg/kg, iv
# Format: ADME, organism-based
# experimental conditions: in vivo
Give bare numbers, in h.

Before answering, review these 4 worked examples.
Cc1ncn(-c2cc(Cl)c(C(=O)NC[C@@H](c3cccc(F)c3)c3nc4ccc(Cl)cc4[nH]3)c(Cl)c2)n1: 0.8
Cc1ncn(-c2cc(Cl)c(C(=O)NC[C@@H](c3cccc(F)c3)c3nc4c(C)cc(Cl)cc4[nH]3)c(Cl)c2)n1: 1.66
Cc1ncn(-c2cc(Cl)c(C(=O)NC[C@@H](c3cccc(F)c3)c3ccc4[nH]c(C)nc4c3)c(Cl)c2)n1: 1.24
COc1cc2nc([C@@H](CNC(=O)c3c(Cl)cc(-n4cnc(C)n4)cc3Cl)c3cccc(F)c3)[nH]c2cc1Cl: 1.03

Req: half-life lookup needed for `Cc1ncn(-c2cc(Cl)c(C(=O)NC[C@@H](c3cccc(F)c3)c3nc4c(F)ccc(C)c4c(=O)[nH]3)c(Cl)c2)n1` , thanks.
Resp: 1.12

---

# study system: UniProt:P08684
# Sequence (P08684 whole entry): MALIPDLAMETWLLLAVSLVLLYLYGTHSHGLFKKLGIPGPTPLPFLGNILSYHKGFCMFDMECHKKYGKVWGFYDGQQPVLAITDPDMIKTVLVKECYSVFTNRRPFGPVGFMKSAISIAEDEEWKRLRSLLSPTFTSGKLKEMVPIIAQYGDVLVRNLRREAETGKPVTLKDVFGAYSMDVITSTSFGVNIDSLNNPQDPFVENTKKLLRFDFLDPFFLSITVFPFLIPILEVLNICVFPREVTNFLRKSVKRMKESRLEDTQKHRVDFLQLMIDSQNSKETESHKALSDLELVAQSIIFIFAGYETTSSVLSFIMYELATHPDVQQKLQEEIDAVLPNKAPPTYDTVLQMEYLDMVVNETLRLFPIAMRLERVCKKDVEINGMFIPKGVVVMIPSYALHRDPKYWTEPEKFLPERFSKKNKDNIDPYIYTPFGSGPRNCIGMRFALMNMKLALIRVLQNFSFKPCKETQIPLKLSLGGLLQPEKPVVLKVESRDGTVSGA
pIC50: −log10 of the molar value.
measured endpoint: pIC50

Cc1ncn(-c2cc(Cl)c(C(=O)NC[C@@H](c3cccc(F)c3)c3nc4c(F)ccc(C)c4c(=O)[nH]3)c(Cl)c2)n1: < 4.30

Here's the next entry for you.
Req: pIC50 lookup needed for `Cc1ncn(-c2cc(Cl)c(C(=O)NC[C@@H](c3cccc(F)c3)c3ccc4[nH]c(C)nc4c3)c(Cl)c2)n1` , thanks.
Resp: < 4.30

---

# study system: Cytochrome P450 2C9 (Homo sapiens, UniProt P11712)
# Sequence (P11712 whole entry): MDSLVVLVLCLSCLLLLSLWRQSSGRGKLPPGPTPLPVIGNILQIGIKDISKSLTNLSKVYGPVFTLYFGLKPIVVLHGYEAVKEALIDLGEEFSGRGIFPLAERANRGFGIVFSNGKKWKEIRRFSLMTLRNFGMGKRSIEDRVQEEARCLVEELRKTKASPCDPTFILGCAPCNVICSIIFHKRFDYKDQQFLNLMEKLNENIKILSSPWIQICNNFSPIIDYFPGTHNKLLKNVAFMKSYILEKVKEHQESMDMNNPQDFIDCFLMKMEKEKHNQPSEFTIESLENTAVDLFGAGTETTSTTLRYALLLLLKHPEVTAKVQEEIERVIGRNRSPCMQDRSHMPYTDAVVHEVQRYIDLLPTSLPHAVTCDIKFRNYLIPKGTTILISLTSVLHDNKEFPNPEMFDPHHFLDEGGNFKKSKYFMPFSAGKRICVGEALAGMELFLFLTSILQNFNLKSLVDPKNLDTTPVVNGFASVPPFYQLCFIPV
measured endpoint: IC50 (µM)
Answers are plain numbers, in µM.

Req: IC50 lookup needed for `Cc1ncn(-c2cc(Cl)c(C(=O)NC[C@@H](c3cccc(F)c3)c3nc4c(F)ccc(C)c4c(=O)[nH]3)c(Cl)c2)n1` , thanks.
Resp: 42.8

---

# study system: Cytochrome P450 2D6 (Homo sapiens)
# Sequence (P10635 whole entry): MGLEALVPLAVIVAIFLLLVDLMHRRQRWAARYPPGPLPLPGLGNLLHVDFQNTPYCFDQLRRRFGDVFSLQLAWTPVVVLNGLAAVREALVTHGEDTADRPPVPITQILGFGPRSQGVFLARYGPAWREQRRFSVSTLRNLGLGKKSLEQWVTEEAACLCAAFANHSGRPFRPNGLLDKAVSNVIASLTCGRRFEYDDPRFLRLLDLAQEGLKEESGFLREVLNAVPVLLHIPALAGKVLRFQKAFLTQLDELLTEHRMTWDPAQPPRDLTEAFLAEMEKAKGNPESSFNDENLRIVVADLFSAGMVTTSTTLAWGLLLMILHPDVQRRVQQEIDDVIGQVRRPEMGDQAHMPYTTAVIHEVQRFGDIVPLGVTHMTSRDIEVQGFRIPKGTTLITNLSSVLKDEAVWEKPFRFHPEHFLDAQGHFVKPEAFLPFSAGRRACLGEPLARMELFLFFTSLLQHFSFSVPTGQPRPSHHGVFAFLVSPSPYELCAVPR
measured endpoint: pIC50
Answers are plain numbers, as −log10 of the molar value.

Req: pIC50 lookup needed for `Cc1ncn(-c2cc(Cl)c(C(=O)NC[C@@H](c3cccc(F)c3)c3nc4ccc(Cl)cc4[nH]3)c(Cl)c2)n1` , thanks.
Resp: 4.52
